Test: In vivo DMPK study in mice
Conditions: mouse, plasma; male C57 mice, single dose, 1 mg/kg intravenous or 10 mg/kg oral; read-out: Vdss (volume of distribution)
Description: Experimental purpose: Male C57 mice were used as test animals to determine blood concentrations of compounds and assess pharmacokinetic behavior after a single dose. Experimental procedure: Six healthy adult male C57 mice were selected, three of them for the intravenous injection group and three of them for the oral group. […]
endpoint_name: Vd (L/kg)
The reply should be a number in L/kg, with the unit left off.

>  <smiles_text>
CS[C@H]1O[C@@H](c2ccc(F)c(Cc3ccc(O[C@@H]4CCN([C@H]5CO[C@H](c6cc(F)ccc6F)[C@@H](N)C5)C4)cc3)c2)[C@H](O)[C@@H](O)[C@@H]1O

>  <Vd / L/kg>
12.2

$$$$

Consider the record given below.
Query string: I would be grateful if you could share the reported Vd for CS[C@H]1O[C@@H](c2cc(Cc3ccc(O[C@@H]4CCN([C@H]5CO[C@H](c6cc(F)ccc6F)[C@@H](N)C5)C4)cc3)c(F)cc2F)[C@H](O)[C@@H](O)[C@@H]1O .
Result string: 12

====

molecular target: Human-SGLT1 (Homo sapiens, UniProt P13866); assay: SGLT1 glucose transport assay ([14C]-labeled glucose uptake); details: cells stably expressing Human-SGLT1, 37° C., 2 hours
Sequence (P13866 whole entry): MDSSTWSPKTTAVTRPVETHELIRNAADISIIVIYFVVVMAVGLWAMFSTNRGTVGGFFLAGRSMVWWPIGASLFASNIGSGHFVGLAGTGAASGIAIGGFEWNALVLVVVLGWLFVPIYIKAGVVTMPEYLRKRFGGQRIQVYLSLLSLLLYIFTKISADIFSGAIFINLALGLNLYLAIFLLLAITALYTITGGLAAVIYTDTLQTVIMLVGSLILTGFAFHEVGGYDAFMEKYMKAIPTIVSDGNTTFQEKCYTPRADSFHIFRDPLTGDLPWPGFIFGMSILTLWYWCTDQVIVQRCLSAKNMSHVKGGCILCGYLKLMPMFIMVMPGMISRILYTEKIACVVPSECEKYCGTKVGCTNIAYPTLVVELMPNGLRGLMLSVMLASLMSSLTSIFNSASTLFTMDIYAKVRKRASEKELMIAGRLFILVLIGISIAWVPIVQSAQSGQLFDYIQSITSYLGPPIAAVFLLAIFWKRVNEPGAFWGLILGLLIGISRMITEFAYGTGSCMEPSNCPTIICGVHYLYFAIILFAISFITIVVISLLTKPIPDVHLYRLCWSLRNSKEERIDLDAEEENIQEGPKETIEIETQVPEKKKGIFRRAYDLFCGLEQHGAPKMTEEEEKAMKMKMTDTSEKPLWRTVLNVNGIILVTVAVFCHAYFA
Below: a set of entries, each annotated with reported log10(IC50).
// units: nM (pre-log); metric: IC50; scale: log10

Below, each entry is followed by its recorded log10(IC50) result.
>  <molecule>
CS[C@H]1O[C@@H](c2cc(Cc3ccc(O[C@@H]4CCN([C@H]5CO[C@H](c6cc(F)ccc6F)[C@@H](N)C5)C4)cc3)c(F)cc2C)[C@H](O)[C@@H](O)[C@@H]1O

>  <value_observed>
2.72

$$$$
>  <molecule>
CS[C@H]1O[C@@H](c2cc(Cc3ccc(O[C@@H]4CCN([C@H]5CO[C@H](c6cc(F)ccc6F)[C@@H](N)C5)C4)cc3)c(F)cc2F)[C@H](O)[C@@H](O)[C@@H]1O

>  <value_observed>
2.47

$$$$
>  <molecule>
CS[C@H]1O[C@@H](c2ccc(Cl)c(Cc3ccc(O[C@@H]4CCN([C@H]5CO[C@H](c6cc(F)ccc6F)[C@@H](N)C5)C4)cc3)c2C)[C@H](O)[C@@H](O)[C@@H]1O

>  <value_observed>
2.99

$$$$

Query string: I would be grateful if you could share the reported log10(IC50) for CS[C@H]1O[C@@H](c2ccc(F)c(Cc3ccc(O[C@@H]4CCN([C@H]5CO[C@H](c6cc(F)ccc6F)[C@@H](N)C5)C4)cc3)c2)[C@H](O)[C@@H](O)[C@@H]1O .
Result string: 3.11

Query string: Try this molecule next: CS[C@H]1O[C@@H](c2cc(C)c(Cl)c(Cc3ccc(OC4CCN([C@H]5CO[C@H](c6cc(F)ccc6F)[C@@H](N)C5)C4)cc3)c2)[C@H](O)[C@@H](O)[C@@H]1O (some centres unmarked)
Result string: 1.52

Query string: Try this molecule next: COc1cc(F)c(Cc2ccc(O[C@@H]3CCN([C@H]4CO[C@H](c5cc(F)ccc5F)[C@@H](N)C4)C3)cc2)cc1[C@@H]1O[C@H](SC)[C@@H](O)[C@H](O)[C@H]1O
Result string: 3.32

Query string: Try this molecule next: CS[C@H]1O[C@@H](c2cc(Cc3ccc(O[C@@H]4CCN([C@H]5CO[C@H](c6cc(F)ccc6F)[C@@H](N)C5)C4)cc3)c(Cl)cc2C)[C@H](O)[C@@H](O)[C@@H]1O
Result string: 2.27

Query string: Try this molecule next: CS[C@H]1O[C@@H](c2cccc(Cc3ccc(OC4CCN([C@H]5CO[C@H](c6cc(F)ccc6F)[C@@H](N)C5)C4)cc3)c2)[C@H](O)[C@@H](O)[C@@H]1O (some centres unmarked)
Result string: 1.45
